Where these numbers come from: patent US20260092074A1

Give measured IC50 for each item. Keep answers brief.
- targetUnderTest: human CYP11B2 (Homo sapiens, UniProt P19099)
- procedureDetails: Inhibition of hCYP11B2 in transfected V79 cells
- experimentalConditions: hamster V79 cells expressing human CYP11B2; substrate 11-deoxycorticosterone 200 nM
Give bare numbers, in nM.

Batch request: IC50 per item, same order as input.
1. N#Cc1ccc(-c2cncc3c2OCCN3C(=O)CNC(=O)c2ccc(F)cc2)cc1 [O59]
2. COc1ccc(S(=O)(=O)N2CCSc3c(-c4ccc(C#N)cc4)cncc32)cc1 [S13]
3. Cc1cccc(CC(=O)N2CCOc3c(-c4ccc(C#N)cc4)cncc32)c1 [O43]
4. N#Cc1ccc(-c2cncc3c2OCCN3C(=O)c2ccc(C(F)(F)F)cc2)cc1 [O24]

Solution:
1. 2.8
2. 0.1
3. 4.7
4. 19.7

----------
- targetUnderTest: human CYP11B1 (Homo sapiens, UniProt P15538)
- Sequence (P15538 25-503): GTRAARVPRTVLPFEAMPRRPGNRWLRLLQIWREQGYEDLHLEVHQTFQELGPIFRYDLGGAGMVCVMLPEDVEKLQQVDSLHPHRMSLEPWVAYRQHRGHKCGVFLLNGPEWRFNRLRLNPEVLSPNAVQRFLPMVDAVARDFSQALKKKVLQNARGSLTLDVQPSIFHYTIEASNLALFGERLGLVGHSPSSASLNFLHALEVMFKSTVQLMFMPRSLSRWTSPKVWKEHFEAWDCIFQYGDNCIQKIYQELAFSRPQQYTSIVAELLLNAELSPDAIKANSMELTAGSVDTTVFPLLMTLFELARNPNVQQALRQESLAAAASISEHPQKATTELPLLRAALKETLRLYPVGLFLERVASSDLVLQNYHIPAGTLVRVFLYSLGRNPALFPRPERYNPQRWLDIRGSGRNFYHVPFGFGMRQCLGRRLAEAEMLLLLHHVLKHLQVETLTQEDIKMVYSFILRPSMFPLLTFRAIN
- procedureDetails: Inhibition of hCYP11B1 in transfected V79 cells
- experimentalConditions: hamster V79 cells expressing human CYP11B1; substrate 11-deoxycortisol 200 nM
measurementType: pIC50
Give bare numbers, as −log10 of the molar value.

Examples with their reported pIC50 follow.
{"molecule": "N#Cc1ccc(-c2cncc3c2CCN3C(=O)c2cccc([N+](=O)[O-])c2)cc1", "pIC50": 6.93}
{"molecule": "Cc1ccc(C(=O)N2CCc3c(-c4ccc(C#N)cc4)cncc32)cc1", "pIC50": 6.61}
{"molecule": "O=C(c1ccc(F)cc1)n1ccc2c(-c3cc4ccccc4s3)cncc21", "pIC50": 6.20}
{"molecule": "O=S(=O)(C1CCNCC1)N1CCSc2c(-c3cc4cc(Cl)ccc4o3)cncc21", "pIC50": 6.16}
{"molecule": "O=C(c1ccc(F)cc1)n1ccc2c(-c3cc4ccccc4[nH]3)cncc21", "pIC50": 6.43}
{"molecule": "N#Cc1ccc(S(=O)(=O)N2CCSc3c(-c4ccc5c(c4)CC(=O)N5)cncc32)cc1", "pIC50": 5.71}
{"molecule": "N#Cc1ccc(CN2CC(S(=O)(=O)N3CCSc4c(-c5ccc(C#N)cc5)cncc43)C2)cc1", "pIC50": 7.74}
{"molecule": "N#Cc1ccc(-c2cncc3c2OCCN3C(=O)c2ccco2)cc1", "pIC50": 6.73}
{"molecule": "COc1ccc(S(=O)(=O)N2CCSc3c(-c4ccco4)cncc32)cc1", "pIC50": 9.15}
{"molecule": "N#Cc1ccc(-c2cncc3c2SCCN3C(=O)c2cccc(Cl)c2)cc1", "pIC50": 5.88}

Batch request: pIC50 per item, same order as input.
1. Cn1c(=O)c(=O)[nH]c2cncc(-c3ccc(F)cc3)c21
2. Cc1ccc(S(=O)(=O)N2CCOc3c(-c4ccc(C#N)cc4)cncc32)cc1
3. Cc1ccc(S(=O)(=O)N2CCc3c(-c4ccc(C#N)cc4)cncc32)cc1
4. N#Cc1ccc(-c2cncc3c2OCCN3C(=O)C2CN(S(=O)(=O)c3ccc(C#N)cc3)C2)cc1 [O69]

Solution:
1. 6.13
2. 10.00
3. 9.25
4. 7.24

----------
Give measured IC50 for each item. Keep answers brief.
- targetUnderTest: human CYP11B2 (Homo sapiens)
- procedureDetails: Inhibition of hCYP11B2 in transfected V79 cells
- experimentalConditions: hamster V79 cells expressing human CYP11B2; substrate 11-deoxycorticosterone 200 nM
Answers are plain numbers, in nM.

{"smilesEntry": "N#Cc1ccc(-c2cncc3c2ccn3C(=O)c2cccc([N+](=O)[O-])c2)cc1", "IC50 / nM": 0.6}
{"smilesEntry": "N#Cc1ccc(-c2cncc3c2OCCN3S(=O)(=O)C2CN(S(=O)(=O)c3cccc(F)c3)C2)cc1", "IC50 / nM": 2.4}
{"smilesEntry": "N#Cc1ccc2oc(-c3cncc4c3OCCN4)cc2c1", "IC50 / nM": 4.8}
{"smilesEntry": "N#Cc1ccc(-c2cncc3c2OCCN3S(=O)(=O)c2ccc(C(F)(F)F)cc2)cc1", "IC50 / nM": 0.04}
{"smilesEntry": "N#Cc1ccc(-c2cncc3c2OCCN3C(=O)Cc2ccc(C(F)(F)F)cc2)cc1", "IC50 / nM": 15.1}

Batch request: IC50 per item, same order as input.
1. O=C(C1CN(Cc2cccc(F)c2)C1)N1CCOc2c(-c3ccc4ncsc4c3)cncc21
2. N#Cc1ccc(S(=O)(=O)N2CCOc3c(-c4ccc5c(c4)NC(=O)C5)cncc32)cc1
3. N#Cc1ccc(-c2cncc3c2OCCN3C(=O)C2CNC2)cc1
4. N#Cc1ccc(-c2cncc3c2OCCN3S(=O)(=O)C2CN(Cc3cccc(C#N)c3)C2)cc1

Solution:
1: 6; 2: 5.4; 3: 5.1; 4: 0.3

----------
- targetUnderTest: human CYP11B1 (Homo sapiens)
- procedureDetails: Inhibition of hCYP11B1 in transfected V79 cells
- experimentalConditions: hamster V79 cells expressing human CYP11B1; substrate 11-deoxycortisol 200 nM
measurementType: IC50 (nM)
Give bare numbers, in nM.

{"smilesEntry": "Cc1cccc(S(=O)(=O)N2CCSc3c(-c4ccc(C#N)cc4)cncc32)c1", "IC50 / nM": 2.1}
{"smilesEntry": "COc1ccc(S(=O)(=O)N2CCSc3c(-c4cccc(C#N)c4)cncc32)cc1", "IC50 / nM": 2.9}
{"smilesEntry": "Cn1ccc(S(=O)(=O)N2CCSc3c(-c4cc5cc(Cl)ccc5o4)cncc32)n1", "IC50 / nM": 41}
{"smilesEntry": "O=S(=O)(c1ccc(O)nc1)N1CCSc2c(-c3cc4cc(Cl)ccc4o3)cncc21", "IC50 / nM": 549}
{"smilesEntry": "N#Cc1ccc(S(=O)(=O)N2CCSc3c(-c4ccn5ccnc5c4)cncc32)cc1", "IC50 / nM": 298}
{"smilesEntry": "N#Cc1ccc(-c2cncc3c2CCN3C(=O)c2cccc(C(F)(F)F)c2)cc1", "IC50 / nM": 310}

Batch request: IC50 per item, same order as input.
1. Cc1ccc(CC(=O)N2CCc3c(-c4ccc(C#N)cc4)cncc32)cc1
2. Cc1ccc(S(=O)(=O)N2CCSc3c(-c4ccc(C#N)cc4)cncc32)cc1
3. N#Cc1ccc(-c2cncc3c2OCCN3C(=O)c2ccc(F)cc2)cc1

Solution:
51
2.8
1350

----------
- targetUnderTest: human CYP11B1 (Homo sapiens, UniProt P15538)
- procedureDetails: Inhibition of hCYP11B1 in transfected V79 cells
- experimentalConditions: hamster V79 cells expressing human CYP11B1; substrate 11-deoxycortisol 200 nM
Give measured IC50 for each item. Keep answers brief.

Batch request: IC50 per item, same order as input.
1. COc1ccc(CN2CC(S(=O)(=O)N3CCOc4c(-c5ccc(C#N)cc5)cncc43)C2)cc1 [O125]
2. Cn1ncc2ccc(-c3cncc4c3SCCN4S(=O)(=O)c3ccc(C#N)cc3)cc21 [S45]
3. N#Cc1ccc(-c2cncc3c2OCCN3C(=O)C(F)(F)F)cc1 [O35]
4. N#Cc1ccc(-c2cncc3c2SCCN3S(=O)(=O)c2ccccc2)cc1 [S8]

Solution:
1: 0.028 µM; 2: 1.46 µM; 3: 0.101 µM; 4: 0.0015 µM

Batch request: IC50 per item, same order as input.
1. N#CN1CC2(CC(S(=O)(=O)N3CCSc4c(-c5cc6cc(Cl)ccc6o5)cncc43)C2)C1 [S67]
2. Cc1ccccc1C(=O)N1CCSc2c(-c3ccc(C#N)cc3)cncc21 [S90]
3. Clc1ccc2oc(-c3cncc4c3OCCN4)cc2c1 [O108]
4. N#Cc1ccc(S(=O)(=O)N2CCSc3c(-c4cc5cc(C#N)ccc5o4)cncc32)cc1 [S42]
5. N#Cc1ccc(-c2cncc3c2CCN3C(=O)c2ccco2)cc1 [C44]
6. Cc1ccccc1C(=O)N1CCc2c(-c3ccc(C#N)cc3)cncc21 [C36]

Solution:
1: 0.603 µM; 2: 4.44 µM; 3: 0.359 µM; 4: 0.024 µM; 5: 0.139 µM; 6: 0.297 µM

----------
Give measured pIC50 for each item. Keep answers brief.
- targetUnderTest: UniProt P19099
- Sequence (P19099 25-503): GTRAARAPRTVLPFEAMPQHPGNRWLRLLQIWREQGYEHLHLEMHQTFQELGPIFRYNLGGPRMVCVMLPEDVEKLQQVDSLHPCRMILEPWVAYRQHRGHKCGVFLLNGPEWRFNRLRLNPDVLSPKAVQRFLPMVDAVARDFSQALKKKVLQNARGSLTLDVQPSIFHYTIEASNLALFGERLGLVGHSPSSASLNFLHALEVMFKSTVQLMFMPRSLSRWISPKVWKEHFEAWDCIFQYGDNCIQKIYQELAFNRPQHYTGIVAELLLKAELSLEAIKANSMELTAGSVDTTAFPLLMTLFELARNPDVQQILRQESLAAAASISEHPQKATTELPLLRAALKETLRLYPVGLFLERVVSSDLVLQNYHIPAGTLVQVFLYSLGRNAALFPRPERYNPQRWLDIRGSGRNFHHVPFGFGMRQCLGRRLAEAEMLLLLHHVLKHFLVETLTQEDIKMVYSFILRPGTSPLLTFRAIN
- procedureDetails: Inhibition of hCYP11B2 in transfected V79 cells
- experimentalConditions: hamster V79 cells expressing human CYP11B2; substrate 11-deoxycorticosterone 200 nM
Give bare numbers, as −log10 of the molar value.

{"molecule": "COc1ccc(C(=O)N2CCSc3c(-c4ccc(C#N)cc4)cncc32)cc1 [S97]", "pIC50": 7.68}
{"molecule": "N#Cc1ccc(-c2cncc3c2OCCN3S(=O)(=O)c2cccs2)cc1", "pIC50": 9.25}
{"molecule": "N#CC12CC(c3cncc4c3OCCN4C(=O)C3CN(Cc4cccc(F)c4)C3)(C1)C2", "pIC50": 7.26}
{"molecule": "O=C(c1ccccc1F)N1CCc2c(-c3cc4ccccc4s3)cncc21", "pIC50": 6.67}

Could you now look at the following molecule, please?
Exercise: Item N#Cc1ccc(-c2cncc3c2ccn3C(=O)c2ccccc2F)cc1 has what recorded pIC50?
Solution: 8.68
